Test system: coxsackievirus B3 (CVB3-GFP)
Assay type: cell-based
condition_description: HeLa cells, GFP-positive cells within RFP-positive gate, replicate R1
quantity_measured: Percent Infected R1 (%)
Reply with just the number (in %).

molecule: MARCH1: human RING type E3 ligase expressed from lentiviral vector (protein, UniProt Q8TCQ1 1-289, looked up) E3 ubiquitin-protein ligase …: MLGWCEAIARNPHRIPNNTRTPEISGDLADASQTSTLNEKSPGRSASRSSNISKASSPTTGTAPRSQSRLSVCPSTQDICRICHCEGDEESPLITPCRCTGTLRFVHQSCLHQWIKSSDTRCCELCKYDFIMETKLKPLRKWEKLQMTTSERRKIFCSVTFHVIAITCVVWSLYVLIDRTAEEIKQGNDNGVLEWPFWTKLVVVAIGFTGGLVFMYVQCKVYVQLWRRLKAYNRVIFVQNCPDTAKKLEKNFSCNVNTDIKDAVVVPVPQTGANSLPSAEGGPPEVVSV
reported_value: 97.7
//
molecule: RNF122: human RING type E3 ligase expressed from lentiviral vector (protein, UniProt Q9H9V4 1-155, looked up) RING finger protein 122: MHPFQWCNGCFCGLGLVSTNKSCSMPPISFQDLPLNIYMVIFGTGIFVFMLSLIFCCYFISKLRNQAQSERYGYKEVVLKGDAKKLQLYGQTCAVCLEDFKGKDELGVLPCQHAFHRKCLVKWLEVRCVCPMCNKPIASPSEATQNIGILLDELV
reported_value: 90.3

Next molecule, Percent Infected R1 to be filled in.
Ask | Find the recorded Percent Infected R1 belonging to RNF4: human RING type E3 ligase expressed from lentiviral vector (protein, UniProt P78317 1-190, looked up, lentiviral expression, human RING type E3 ligase expressed from lentiviral vector) E3 ubiquitin-protein ligase …: MSTRKRRGGAINSRQAQKRTREATSTPEISLEAEPIELVETAGDEIVDLTCESLEPVVVDLTHNDSVVIVDERRRPRRNARRLPQDHADSCVVSSDDEELSRDRDVYVTTHTPRNARDEGATGLRPSGTVSCPICMDGYSEIVQNGRLIVSTECGHVFCSQCLRDSLKNANTCPTCRKKINHKRYHPIYI and report it.
Reply | 93.3
